# System under test: M6PR (Homo sapiens)
# Construct: endogenous in cells; host or cells: HUVEC (parental, or transduced with LV-143Spg / control LV)
# Sequence (P11717 41-2491): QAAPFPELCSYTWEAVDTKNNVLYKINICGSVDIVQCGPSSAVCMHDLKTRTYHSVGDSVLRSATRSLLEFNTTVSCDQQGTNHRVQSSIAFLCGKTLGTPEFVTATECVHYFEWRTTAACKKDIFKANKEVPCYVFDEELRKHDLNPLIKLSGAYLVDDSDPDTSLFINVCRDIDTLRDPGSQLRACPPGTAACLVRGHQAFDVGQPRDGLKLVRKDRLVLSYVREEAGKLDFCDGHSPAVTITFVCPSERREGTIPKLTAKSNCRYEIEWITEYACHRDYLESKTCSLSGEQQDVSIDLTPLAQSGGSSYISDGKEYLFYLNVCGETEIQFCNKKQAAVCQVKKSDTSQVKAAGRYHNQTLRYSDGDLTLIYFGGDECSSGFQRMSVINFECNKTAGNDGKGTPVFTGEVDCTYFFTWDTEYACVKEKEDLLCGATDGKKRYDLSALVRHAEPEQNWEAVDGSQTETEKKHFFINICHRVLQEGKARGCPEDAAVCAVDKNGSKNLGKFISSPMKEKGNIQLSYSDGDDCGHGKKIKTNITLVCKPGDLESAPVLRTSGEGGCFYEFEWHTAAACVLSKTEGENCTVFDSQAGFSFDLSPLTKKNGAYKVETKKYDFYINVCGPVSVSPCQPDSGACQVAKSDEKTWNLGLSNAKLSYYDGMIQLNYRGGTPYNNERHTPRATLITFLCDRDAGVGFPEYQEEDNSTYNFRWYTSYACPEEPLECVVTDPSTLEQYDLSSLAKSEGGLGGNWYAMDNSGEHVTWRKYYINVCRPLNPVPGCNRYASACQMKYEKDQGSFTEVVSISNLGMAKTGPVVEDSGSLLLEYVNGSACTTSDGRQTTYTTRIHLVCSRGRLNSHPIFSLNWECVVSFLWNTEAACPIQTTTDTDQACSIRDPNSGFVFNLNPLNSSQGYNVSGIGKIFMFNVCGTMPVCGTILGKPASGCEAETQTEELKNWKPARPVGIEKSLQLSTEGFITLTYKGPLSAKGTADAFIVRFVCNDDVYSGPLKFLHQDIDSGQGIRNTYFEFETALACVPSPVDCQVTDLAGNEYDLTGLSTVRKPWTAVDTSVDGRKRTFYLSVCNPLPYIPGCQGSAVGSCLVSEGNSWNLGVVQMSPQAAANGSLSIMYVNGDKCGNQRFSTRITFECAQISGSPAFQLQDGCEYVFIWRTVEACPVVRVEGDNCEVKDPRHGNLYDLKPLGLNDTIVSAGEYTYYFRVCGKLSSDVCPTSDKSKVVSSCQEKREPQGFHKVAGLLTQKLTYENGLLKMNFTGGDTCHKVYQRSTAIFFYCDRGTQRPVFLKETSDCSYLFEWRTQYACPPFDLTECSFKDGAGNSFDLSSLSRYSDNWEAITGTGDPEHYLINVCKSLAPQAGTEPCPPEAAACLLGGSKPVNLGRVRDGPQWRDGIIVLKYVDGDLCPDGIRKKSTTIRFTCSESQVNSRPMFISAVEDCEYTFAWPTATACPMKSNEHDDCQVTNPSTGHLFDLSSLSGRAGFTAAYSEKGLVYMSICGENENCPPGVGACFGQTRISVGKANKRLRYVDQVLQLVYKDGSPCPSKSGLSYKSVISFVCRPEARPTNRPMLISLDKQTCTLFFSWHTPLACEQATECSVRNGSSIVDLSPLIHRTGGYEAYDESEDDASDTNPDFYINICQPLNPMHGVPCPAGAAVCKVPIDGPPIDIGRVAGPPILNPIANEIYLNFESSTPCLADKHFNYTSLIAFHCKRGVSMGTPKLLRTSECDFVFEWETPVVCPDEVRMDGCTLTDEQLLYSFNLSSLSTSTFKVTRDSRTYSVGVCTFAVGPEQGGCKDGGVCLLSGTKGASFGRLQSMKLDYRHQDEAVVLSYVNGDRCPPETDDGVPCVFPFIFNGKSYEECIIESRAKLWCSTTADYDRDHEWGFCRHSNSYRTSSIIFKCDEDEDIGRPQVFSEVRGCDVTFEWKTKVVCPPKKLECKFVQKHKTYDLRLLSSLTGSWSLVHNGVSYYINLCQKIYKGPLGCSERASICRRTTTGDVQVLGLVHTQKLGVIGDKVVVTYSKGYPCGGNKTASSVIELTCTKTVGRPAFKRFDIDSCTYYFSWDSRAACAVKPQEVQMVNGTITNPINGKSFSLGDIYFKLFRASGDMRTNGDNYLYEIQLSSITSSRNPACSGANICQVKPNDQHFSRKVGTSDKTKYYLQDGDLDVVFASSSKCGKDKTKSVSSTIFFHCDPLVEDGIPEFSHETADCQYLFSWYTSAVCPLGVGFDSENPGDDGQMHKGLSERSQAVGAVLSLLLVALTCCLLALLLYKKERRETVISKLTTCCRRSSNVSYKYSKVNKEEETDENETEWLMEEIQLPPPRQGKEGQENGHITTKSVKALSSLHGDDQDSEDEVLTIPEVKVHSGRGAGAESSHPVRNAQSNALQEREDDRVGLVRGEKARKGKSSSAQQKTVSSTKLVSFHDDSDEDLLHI
# Test name: M6P competition of IDUA-myc uptake in HUVEC
# Assay type: cell-based
# Run parameters: 1 h exposure to IDUA-myc conditioned medium (~20,000 U/mL), read-out: Median inhibitory concentration (IC50) of IDUA-myc uptake
Metric name: IC50 (µM)

O=C[C@@H](O)[C@@H](O)[C@H](O)[C@H](O)COP(=O)(O)O [M6P inhibitor, mannose 6-phosphate]	347
